biological target: D-2 (dopamine-2) receptors (Rattus norvegicus); construct: The D2 assay employed a P2 fraction from the striatum, the ligand ^3H-spiperone at a concentration of 0.05 nM; from tissue; host or cells: rat striatum, P2 fraction (synaptosomal membranes), male Wistar rats; assay: biochemical; assay type: binding, male, Wistar rats; conditions: rat striatum P2 fraction, 3H-spiperone 0.05 nM; read-out: Receptor Binding (Ki nM) D2
Sequence (P61169 whole entry): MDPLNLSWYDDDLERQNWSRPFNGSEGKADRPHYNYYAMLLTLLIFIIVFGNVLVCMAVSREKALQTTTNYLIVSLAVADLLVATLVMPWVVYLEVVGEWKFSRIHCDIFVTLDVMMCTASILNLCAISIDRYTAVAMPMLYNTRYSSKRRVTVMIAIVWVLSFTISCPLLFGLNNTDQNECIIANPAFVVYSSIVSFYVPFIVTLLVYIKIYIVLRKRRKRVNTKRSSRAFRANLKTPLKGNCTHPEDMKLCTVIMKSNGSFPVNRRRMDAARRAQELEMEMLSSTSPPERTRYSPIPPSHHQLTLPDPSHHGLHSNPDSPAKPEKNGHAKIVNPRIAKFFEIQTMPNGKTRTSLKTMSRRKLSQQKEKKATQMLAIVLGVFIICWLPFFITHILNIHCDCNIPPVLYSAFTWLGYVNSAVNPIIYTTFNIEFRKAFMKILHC
Doc: threshold 10 nM (exclusive). Items with Ki beneath it return yes (1); others return no (0).

Solved cases below.
>  <structure>
CC(C)Oc1ccccc1N1CCN(Cc2cccc(C(=O)NCCCCCCN)c2)CC1

>  <assigned category>
no (0)

$$$$
>  <structure>
COc1cccc(OC)c1N1CCN(Cc2cccc(C(=O)N3CCCCC3)c2)CC1

>  <assigned category>
no (0)

$$$$
>  <structure>
CC(C)Oc1ccccc1N1CCN(Cc2ccccc2C(=O)N2CCOCC2)CC1

>  <assigned category>
no (0)

$$$$
>  <structure>
C[C@@H]1CCC[C@H](C)N1C(=O)c1cccc(CN2CCN(c3ccc(Cl)c(Cl)c3)CC2)c1

>  <assigned category>
yes (1)

$$$$
>  <structure>
CCOC(=O)C1CCN(C(=O)c2ccccc2CN2CCN(c3ccccc3OC(C)C)CC2)CC1

>  <assigned category>
no (0)

$$$$

Prompt: Field: below-cutoff. Rule: recorded Ki strictly less than 10 nM. Subject: "O=C(c1cccc(CN2CCN(c3ncccn3)CC2)c1)N1CCc2ccccc21"
Completion: no (0)

Prompt: Quick check: does "CC1CCN(C(=O)c2cccc(CN3CCN(c4ccccc4OC(C)C)CC3)c2)CC1" have Ki under 10 nM?
Completion: yes (1)

These data points were gathered from patent EP0563345B1.
